// data source = paper PMC6848146

# assayed-system: CAMKK2-KD (kinase domain of CAMKK2) (Homo sapiens, UniProt Q96RR4)
# Construct: the protein kinase domain (amino acids 161–449); hexahistidine (6xHis), TEV-cleavable; made in house
# Sequence (Q96RR4 161-449): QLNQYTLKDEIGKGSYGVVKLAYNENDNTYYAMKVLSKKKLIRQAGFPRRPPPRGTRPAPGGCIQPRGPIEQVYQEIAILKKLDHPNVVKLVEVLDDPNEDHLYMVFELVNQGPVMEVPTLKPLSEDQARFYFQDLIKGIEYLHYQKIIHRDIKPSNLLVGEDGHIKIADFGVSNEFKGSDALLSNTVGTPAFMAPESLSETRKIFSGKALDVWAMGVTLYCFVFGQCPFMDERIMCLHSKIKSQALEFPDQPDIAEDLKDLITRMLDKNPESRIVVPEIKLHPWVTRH
# test-details: DSF thermal-shift screen, 96-well format
# Assay type: binding
# experimental-setup: 96-well format; 12 µM compound, 2 µM kinase, 2.5% DMSO; single measurement
Known ΔTm of a selection of compounds
parameter: ΔTm (°C)

compound | unit-info | endpoint-value
c1ccc(-c2cnc(Nc3ccc(OCCN4CCCC4)cc3)s2)cc1 | °C | 7.5
O=C1Nc2ccccc2/C1=C1/Nc2ccccc2/C1=N\O | °C | 5.4
O=C(c1ccc(Nc2nccc(-c3cc4ccccc4s3)n2)cc1)N1CCC(N2CCCC2)CC1 | °C | 6.8
O=C1NCCCc2c1oc1ccc(O)cc21 | °C | 4.4
CC(C)n1cnc2c(Nc3cccc(Cl)c3)nc(NCCO)nc21 | °C | 6.8
Cn1cc(/C=C2\C(=O)Nc3ccc(S(N)(=O)=O)cc32)c2ccccc21 | °C | 9.4
Cn1cc(C2=C(c3cn(CCCSC(=N)N)c4ccccc34)C(=O)NC2=O)c2ccccc21 | °C | 8.1
Nc1nc(Nc2ccc(S(N)(=O)=O)cc2)nn1C(=O)c1c(F)cccc1F | °C | 4.3
COc1cc2c(Nc3cc(Cl)c(OC)c(Cl)c3)c(C#N)cnc2cc1OCCCN1CCN(C)CC1 [Bosutinib isomer] | °C | 4.1
O=C1c2ccccc2-c2n[nH]c3cccc1c23 | °C | 6.8

###

# assayed-system: CAMKK2-KD (kinase domain of CAMKK2) (Homo sapiens)
# Construct: the protein kinase domain (amino acids 161–449); hexahistidine (6xHis), TEV-cleavable; made in house
# test-details: DSF thermal-shift screen, 96-well format
# Format: binding
# experimental-setup: 96-well format; 12 µM compound, 2 µM kinase, 2.5% DMSO; single measurement; read-out: ΔTm
parameter: ΔTm at 12 µM (°C)

molecule | endpoint-value
CC(C)[C@H](CO)Nc1nc(Nc2cc(N)cc(Cl)c2)c2ncn(C(C)C)c2n1 | 9.7
COc1ccc2c(c1)/C(=C/c1cnc[nH]1)C(=O)N2 | 5
COc1cc(N2CCC(N3CCN(C)CC3)CC2)ccc1Nc1ncc(Cl)c(Nc2ccccc2S(=O)(=O)C(C)C)n1 | 16.3
CN1CCN(c2ccc3nc(-c4c(N)c5c(F)cccc5[nH]c4=O)[nH]c3c2)CC1 | 6.9
C[C@@H](Oc1cc(-n2cnc3ccc(OC[C@@H](O)CO)cc32)sc1C(N)=O)c1ccccc1Cl [GSK978744A] | 4.9
c1nc2nc(Nc3ccc(N4CCOCC4)cc3)nc(NC3CCCCC3)c2[nH]1 | 4.6

###

# assayed-system: CAMKK2-KD (Homo sapiens, UniProt Q96RR4)
# Sequence (Q96RR4 161-449): as above
# test-details: Isothermal titration calorimetry (reverse titration)
# experimental-setup: KD Run 2, individual ITC experiment, run 2; 20 °C
pKd: −log10 of the molar value.

compound-structure-string | pKd
COCCOc1ccc2c(c1)ncn2-c1ccc2cccc(N3CCC(N)CC3)c2n1 | 8.82

###

# assayed-system: CAMKK2-KD (Homo sapiens, UniProt Q96RR4)
# test-details: Isothermal titration calorimetry (reverse titration)
# experimental-setup: ITC KD, serial integrations of two independent experiments; 20 °C
pKd: −log10 of the molar value.

compound-structure-string | assayed-system | pKd
COCCOc1ccc2c(c1)ncn2-c1ccc2cccc(N3CCC(N)CC3)c2n1 | CAMKK2-KD (Homo sapiens, UniProt Q96RR4) | 8.70

###

# assayed-system: CAMKK2-KD (Homo sapiens, UniProt Q96RR4)
# test-details: Isothermal titration calorimetry (reverse titration)
# experimental-setup: read-out: KD Run 1; individual ITC experiment, run 1; 20 °C
pKd: −log10 of the molar value.
parameter: pKd

compound-structure-string | parameter | endpoint-value
COc1cc(N2CCC(N(C)C)CC2)ccc1Nc1ncc(Cl)c(Nc2ccccc2P(C)(C)=O)n1 | pKd | 8.60

###

Known ΔTm at 10 µM of a selection of compounds
# assayed-system: CAMKK2-KD (kinase domain of CAMKK2) (Homo sapiens, UniProt Q96RR4)
# Construct: the protein kinase domain (amino acids 161–449); hexahistidine (6xHis), TEV-cleavable; made in house
# test-details: DSF thermal-shift screen, 384-well format
# Assay type: binding
# experimental-setup: 10 µM compound, 1 µM kinase, 0.1% DMSO, single measurement
parameter: ΔTm at 10 µM (°C)

compound | endpoint-value
COCCOc1ccc2c(c1)ncn2-c1ccc2cccc(N3CCC(N)CC3)c2n1 | 10
Cc1cc(Nc2nc(N[C@@H](C)c3ccc(F)cc3)c(C#N)cc2F)[nH]n1 | 4.3
CC1(COc2ccc3c(c2)ncn3-c2ccc3cccc(N4CCC(N)CC4)c3n2)COC1 | 10.6
COc1cc2c(Oc3ccc(NC(=O)C4(C(=O)Nc5ccc(F)cc5)CC4)cc3F)ccnc2cc1OCCCN1CCOCC1 | 6.3
C1=C/COCc2cc(ccc2OCCN2CCCC2)Nc2nccc(n2)-c2cccc(c2)COC/1 [Pacritinib (SB1518), Pacritinib] | 7.8
C=CC(=O)Nc1cc(Nc2nccc(-c3cn(C)c4ccccc34)n2)c(OC)cc1N(C)CCN(C)C | 4.1
Cc1nc(N)sc1-c1ccnc(Nc2ccc(N3CCOCC3)cc2)n1 | 4.4
Cc1[nH]c(/C=C2\C(=O)Nc3ccc(S(=O)(=O)Cc4c(Cl)cccc4Cl)cc32)c(C)c1C(=O)N1CCC[C@@H]1CN1CCCC1 | 4.9
N#CCNC(=O)c1ccc(-c2ccnc(Nc3ccc(N4CCOCC4)cc3)n2)cc1 | 4.3
O=C(O)c1ccc(-c2c[nH]c3ncc(-c4ccccc4)cc23)cc1C1CCCC1 | 16.2
O=C1NC(=O)/C(=C/c2ccc3nccc(-c4ccncc4)c3c2)S1 | 4.4
CO[C@@H](C(=O)N1Cc2n[nH]c(NC(=O)c3ccc(N4CCN(C)CC4)cc3)c2C1)c1ccccc1 | 5.1
Cc1nc(Nc2[nH]nc3c2CN(C(=O)N[C@H](CN(C)C)c2ccccc2)C3(C)C)c2sccc2n1 | 4.4

###

CAMKK1-FL (Homo sapiens) data, read-out IC50
parameter: IC50

compound | endpoint-value
CC[C@@H]1C(=O)N(C)c2cnc(Nc3ccc(C(=O)N[C@H]4CC[C@H](N5CCN(CC6CC6)CC5)CC4)cc3OC)nc2N1C(C)C | 87 nM
COc1cc(N2CCC(N(C)C)CC2)ccc1Nc1ncc(Cl)c(Nc2ccccc2P(C)(C)=O)n1 | 182 nM
COC(=O)[C@@]1(O)C[C@H]2O[C@]1(C)n1c3ccccc3c3c4c(c5c6ccccc6n2c5c31)C(=O)NC4 [K252a] | 51 nM
